tested on: HBV DNA; experiment: HBV DNA assay (real-time qPCR/TaqMan) in HepG2.2.15 cells; assay type: cell-based; conditions: Hepatitis B virus, 144 h, extracellular HBV DNA in supernatant, six days after initial administration, qPCR, read-out: IC50 (Anti HBV DNA production activity)
RECORDED METRIC: pIC50
Bear in mind: pIC50 is minus log10 of a mol/L concentration; give just that figure.

Tell me the measured pIC50 of COc1cc(F)nc(N2Cc3nc(-c4ncccn4)ncc3C2C)c1 (stereo not shown) , please.
8.19

Tell me the measured pIC50 of CC1c2cnc(-c3ncccn3)nc2CN1C(=O)c1nn(C)c2ccccc12 (stereo not shown) , please.
8.25

Tell me the measured pIC50 of Cc1nc(C(=O)N2Cc3nc(-c4ncccn4)ncc3C2C)sc1C (stereo not shown) , please.
7.17

Tell me the measured pIC50 of Cc1c(C(=O)N2Cc3nc(-c4ncccn4)ncc3C2C)oc2ccccc12 (stereo not shown) , please.
7.58
